meta.source: PubChem BioAssay (NCATS)

experiment: qHTS Assay for Identification of Small Molecule Antagonists for NFkB Signaling Pathway. (AID 624479); details: NFkB pathway reporter cell assay, antagonist mode; series mostly up to 38.3 µM;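 note: pathway stimulated with TNF alpha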
Activity calls are given as the source filed them. Calls come from the whole dose curve.
Response enum: T (active), F (inactive)

>>> category_label("C1Cc2[nH]nc(-c3nn[nH]n3)c2C1")
"F"
>>> category_label("Nc1ccccc1NC(=O)c1ccc(CNc2nccc(-c3cccnc3)n2)cc1")
"T"
>>> category_label("NC(=O)Nc1cc(-c2cccc(F)c2)sc1C(=O)N[C@H]1CCCNC1")
"T"

// query What outcome does the record of this test show for Cc1ccc(C(=O)Nc2ccc(CN3CCN(C)CC3)c(C(F)(F)F)c2)cc1C#Cc1cnc2cccnn12 ?
// result T

// query What outcome does the record of this test show for CCCCCN(CCC12CC3CC(CC(C3)C1)C2)C(=O)NCCCc1ccncc1 ?
// result T

// query What outcome does the record of this test show for CNc1nccc(-c2cccnc2Oc2cc(C(=O)Nc3cccc(C(F)(F)F)c3)ccc2C)n1 ?
// result T
